The measurements presented in this section are drawn from the supplement of paper PMC10899765.

- Test system: MCF10A
- Assay Comment: 5+ nucleoli phenotype percent effect (relative to siNT 0% and siKIF11 100%); higher = more cells with five or more nucleoli
- Run Conditions: 20 nM; 72 h
Hi, to clarify the labels: Condition met covers 5+ nucleoli phenotype percent effect from -10% upward, Condition not met covers anything below -10%.

GGUAGAUUUUCCUUCUAUGGU [hsa-miR-376a-2-5p]: Condition met

Ask: Please indicate if the recorded 5+ nucleoli phenotype percent effect for ACUGAGCCUCUCUCUCUCCAG [hsa-miR-6751-3p] meets or exceeds -10%.
Reply: Condition not met

Ask: Please indicate if the recorded 5+ nucleoli phenotype percent effect for AGAGGCUUUGUGCGGAUACGGGG [hsa-miR-3188] meets or exceeds -10%.
Reply: Condition not met

Ask: Please indicate if the recorded 5+ nucleoli phenotype percent effect for UUAGGCCGCAGAUCUGGGUGA [hsa-miR-1295a] meets or exceeds -10%.
Reply: Condition not met

Ask: Please indicate if the recorded 5+ nucleoli phenotype percent effect for UGGGUGGUCUGGAGAUUUGUGC [hsa-miR-1293] meets or exceeds -10%.
Reply: Condition met

Ask: Please indicate if the recorded 5+ nucleoli phenotype percent effect for UCACACCUGCCUCGCCCCCC [hsa-miR-1228-3p] meets or exceeds -10%.
Reply: Condition not met
